system: Mus musculus; assay: Toxicity in ip dosed C3H X DBA2 F1 hybrid mouse […] with mouse L1210 cells on day 0 and dosed once daily on days 1 to 5 measured after 50 days; type: organism-based; conditions: in vivo, 1200 h
Known LD10 of a selection of molecules
Dear colleague, please return just the value in mg/kg, with no unit written.

I would be grateful if you could share the reported LD10 for `CC[n+]1ccc(-c2ccc(NC(=O)c3ccc(Nc4cc[n+](CC)c5ccccc45)cc3)cc2)cc1.Cc1ccc(S(=O)(=O)[O-])cc1.Cc1ccc(S(=O)(=O)[O-])cc1` .
10

What does the record list as LD10 for `CC[n+]1ccc(Nc2ccc(NC(=O)/C=C/c3ccc(C(=O)Nc4ccc(Nc5cc[n+](CC)cc5)cc4)cc3)cc2)cc1.Cc1ccc(S(=O)(=O)[O-])cc1.Cc1ccc(S(=O)(=O)[O-])cc1` ?
8

What value of LD10 has been reported for the following molecule? `CCC[n+]1cccc(NC(=O)c2ccc(NC(=O)c3ccc(C(=O)Nc4ccc(C(=O)Nc5ccc[n+](CCC)c5)c(N)c4)c(N)c3)cc2N)c1.Cc1ccc(S(=O)(=O)[O-])cc1.Cc1ccc(S(=O)(=O)[O-])cc1`
10

Can you share its LD10? I mean this molecule: `C[n+]1ccc(Nc2ccc(C(=O)Nc3ccc(Nc4cc[n+](C)c5ccccc45)cc3N)cc2)cc1.[Br-].[Br-]`
7

Let us move to another entry and its LD10.
Field request: LD10 | item: `CC[n+]1cccc(NC(=O)c2ccc(NC(=O)c3ccc(C(=O)Nc4ccc(C(=O)Nc5ccc[n+](CC)c5)c(OC)c4)cc3)cc2OC)c1.Cc1ccc(S(=O)(=O)[O-])cc1.Cc1ccc(S(=O)(=O)[O-])cc1`
40

* * *

tested on: L1210; test: Antitumor activity against mouse L1210 cells […] in ip dosed C3H X DBA2 F1 hybrid mouse on day 0 and dosed once daily on days 1 to 5 assessed as increase in life span relative to control; type: functional
Recorded measurements of D40, one per entry
Number in mg/kg, nothing else.

Requested field: D40. Item: `CCCC[n+]1cccc2cc(NC(=O)c3ccc(C(=O)Nc4ccc5c(ccc[n+]5CCCC)c4)c(N)c3)ccc21.Cc1ccc(S(=O)(=O)[O-])cc1.Cc1ccc(S(=O)(=O)[O-])cc1`
9

Given the entry `Br.C/C(=N\NC(=N)N)c1ccc(NC(=O)Nc2ccc(Nc3cc[n+](C)c4ccc(N)cc34)cc2)cc1.[Br-]` , report its measured D40.
18.5

What value of measured D40 is listed for `C[n+]1cc(-c2ccc(NC(=O)c3ccc(Nc4cc[n+](C)c5ccc(N)cc45)cc3N)cc2)c(N)nc1N.Cc1ccc(S(=O)(=O)[O-])cc1.Cc1ccc(S(=O)(=O)[O-])cc1` ?
4.4

Fill blank: measured D40 of the compound `C[n+]1ccc(Nc2ccc(NC(=O)c3ccc(Nc4cc[n+](C)c5ccccc45)cc3N)cc2)cc1.[I-].[I-]` is ____.
1.1

Continuing:
Form field: reported D40 of `COc1cc(NC(=O)c2ccc(C(=O)Nc3ccc(C(=O)Nc4ccc[n+](C)c4)c(OC)c3)cc2)ccc1C(=O)Nc1ccc[n+](C)c1.Cc1ccc(S(=O)(=O)[O-])cc1.Cc1ccc(S(=O)(=O)[O-])cc1`
15

Look at this compound and give its reported D40. `C[n+]1cccc(NC(=O)c2ccc(NC(=O)c3ccc(C(=O)Nc4ccc(-c5ccc(-c6ccc(-c7ccc[n+](C)c7)cc6)cc5)cc4)cc3)cc2)c1.Cc1ccc(S(=O)(=O)[O-])cc1.Cc1ccc(S(=O)(=O)[O-])cc1`
2.5

* * *

tested on: Mus musculus; assay: Toxicity in ip dosed C3H X DBA2 F1 hybrid mouse […] with mouse L1210 cells on day 0 and dosed once daily on days 1 to 5 measured after 50 days; assay type: organism-based; conditions: in vivo, 1200 h
VALUE KIND: LD10 (mg/kg)
Note: unit mg/kg is implicit; provide only the numeric part.

Consider the worked cases shown below.
For Mus musculus, provide LD10 of `C[n+]1ccc(Nc2ccc(NC(=O)c3ccc(Nc4cc[n+](C)c5ccccc45)cc3N)cc2)cc1.[I-].[I-]` please.
29

Fill in the recorded LD10 for this compound, with Mus musculus as test system: `CC[n+]1cccc(NC(=O)c2ccc(NC(=O)c3ccc(C(=O)Nc4ccc(C(=O)Nc5ccc[n+](CC)c5)cc4)c(OC)c3)cc2)c1.Cc1ccc(S(=O)(=O)[O-])cc1.Cc1ccc(S(=O)(=O)[O-])cc1`
20

For Mus musculus, provide LD10 of `CCC[n+]1cccc2cc(NC(=O)c3ccc(C(=O)Nc4ccc5c(ccc[n+]5CCC)c4)cc3)ccc21.Cc1ccc(S(=O)(=O)[O-])cc1.Cc1ccc(S(=O)(=O)[O-])cc1` please.
21

Next:
Form field - read-out: LD10; system: Mus musculus; submitted item: `C[n+]1ccc(Nc2ccc(S(=O)(=O)Nc3ccc(Nc4c5ccccc5[n+](C)c5cc(N)ccc45)cc3)cc2)cc1.[O-][Cl+3]([O-])([O-])[O-].[O-][Cl+3]([O-])([O-])[O-]`
35

Notebook entry, Mus musculus assay: LD10 of `CCC[n+]1ccccc1NC(=O)c1ccc(NC(=O)c2ccc(C(=O)Nc3ccc(C(=O)Nc4cccc[n+]4CCC)cc3)cc2)cc1.Cc1ccc(S(=O)(=O)[O-])cc1.Cc1ccc(S(=O)(=O)[O-])cc1` = ?
100

* * *

assay: Lipophilic-hydrophilic balance, Rm of the compound by partition chromatography; type: physicochemical
Grouping key: Rm. Bins: I: < -0.08; II: ≥ -0.08 and < 0.7; III: ≥ 0.7

For orientation, consider the following solved cases.
# bin lookup: classify `C[n+]1cccc(NC(=O)c2ccc(NC(=O)c3ccc(C(=O)Nc4ccc(C(=O)Nc5ccc[n+](C)c5)cc4)c(N)c3)cc2)c1.Cc1ccc(S(=O)(=O)[O-])cc1.Cc1ccc(S(=O)(=O)[O-])cc1` by its Rm
I

In plain terms, what class is `C[n+]1ccc(Nc2ccc(NC(=O)/C=C/c3ccc(Nc4cc[n+](C)c5ccc(N)cc45)cc3)cc2)cc1.Cc1ccc(S(=O)(=O)[O-])cc1.Cc1ccc(S(=O)(=O)[O-])cc1` ?
II

// bin(item) where item = `CC[n+]1ccc(Nc2ccc(NC(=O)c3ccc(Nc4cc(C)[n+](CC)c5ccc(N)cc45)cc3N)cc2)cc1.[I-].[I-]`
II

Which Rm category applies to `CC[n+]1ccc(Nc2ccc(NC(=O)c3ccc(C(=O)Nc4ccc(Nc5cc[n+](CC)c(N)n5)cc4)cc3)cc2)nc1N.Cc1ccc(S(=O)(=O)[O-])cc1.Cc1ccc(S(=O)(=O)[O-])cc1` here?
I

Into which bin does this molecule go? `C[n+]1cccc2ccc(NC(=O)c3ccc(NC(=O)c4ccc(C(=O)Nc5ccc6ccc[n+](C)c6c5)cc4)cc3)cc21.Cc1ccc(S(=O)(=O)[O-])cc1.Cc1ccc(S(=O)(=O)[O-])cc1`
I

Which class holds `CC[n+]1ccc(Nc2ccc(NC(=O)c3ccc(C(=O)Nc4ccc(Nc5cc[n+](CC)cc5)cc4)cc3)cc2)cc1.Cc1ccc(S(=O)(=O)[O-])cc1.Cc1ccc(S(=O)(=O)[O-])cc1` ?
II

Pick a category. Item: `CC[n+]1ccc(Nc2ccc(NC(=O)CCCCCCC(=O)Nc3ccc(Nc4cc[n+](CC)cc4)cc3)cc2)cc1.[Br-].[Br-]`
III

Classify this molecule: `C[n+]1ccc(Nc2ccc(NC(=O)c3ccc(Nc4cc[n+](C)c5ccc(N)cc45)cc3)cc2N)cc1.[I-].[I-]`
II

***
For the record `CCC[n+]1cccc(NC(=O)c2ccc(NC(=O)c3ccc(C(=O)Nc4ccc(C(=O)Nc5ccc[n+](CCC)c5)cc4)c(Cl)c3)cc2)c1.Cc1ccc(S(=O)(=O)[O-])cc1.Cc1ccc(S(=O)(=O)[O-])cc1` , report the class its Rm corresponds to.
III

Kindly identify the class of `CCC[n+]1ccc(Nc2ccc(NC(=O)c3ccc(Nc4cc[n+](CCC)c5ccccc45)cc3)cc2)cc1.[Br-].[Br-]` .
III

* * *

tested on: Mus musculus; experiment: Toxicity in ip dosed C3H X DBA2 F1 hybrid mouse […] with mouse L1210 cells on day 0 and dosed once daily on days 1 to 5 measured after 50 days; assay type: organism-based; conditions: in vivo, 1200 h
Decide using LD10 alone. Strictly below 50 mg/kg: YES. Equal to or above 50 mg/kg: NO.

Determine whether this compound shows LD10 lower than 50 mg/kg (ties excluded): `CCCCC[n+]1cccc2cc(NC(=O)c3ccc(C(=O)Nc4ccc5c(ccc[n+]5CCCCC)c4)cc3)ccc21.Cc1ccc(S(=O)(=O)[O-])cc1.Cc1ccc(S(=O)(=O)[O-])cc1`
NO

Hi there! Is LD10 for `CCCC[n+]1cccc2cc(NC(=O)COc3ccc(C(=O)Nc4ccc5c(ccc[n+]5CCCC)c4)cc3)ccc21.Cc1ccc(S(=O)(=O)[O-])cc1.Cc1ccc(S(=O)(=O)[O-])cc1` below 50 mg/kg, do you know?
NO

Threshold test, LD10 < 50 mg/kg: `CC[n+]1cccc(NC(=O)c2ccc(NC(=O)c3ccc(C(=O)Nc4ccc[n+](CC)c4)cc3)cc2)c1.Cc1ccc(S(=O)(=O)[O-])cc1.Cc1ccc(S(=O)(=O)[O-])cc1`
YES

Next:
API: query returns whether the compound falls strictly under 50 mg/kg in LD10. Query: `C[n+]1ccc(Nc2ccc(NC(=O)c3ccc(-c4ccc(Nc5cc[n+](C)cc5)cc4)cc3)cc2)cc1.[I-].[I-]`
YES

Hi there! Is LD10 for `CCCCCC[n+]1cccc2cc(NC(=O)c3ccc(C(=O)Nc4ccc5c(ccc[n+]5CCCCCC)c4)cc3)ccc21.Cc1ccc(S(=O)(=O)[O-])cc1.Cc1ccc(S(=O)(=O)[O-])cc1` below 50 mg/kg, do you know?
YES

Cited source for all entries: ChEMBL document CHEMBL3228010
